- Test system: Medulloblastoma cell
- PROTOCOL: Growth inhibition of mouse Ptch+/- medulloblastoma cells at 0.125 uM after 72 hrs relative to control
- Format: functional
- STUDY CONDITIONS: read-out: GI
Please enter 1 where inhibition of growth at 0.125 µM is greater than or equal to 20%, and -1 where it is lower.

Threshold query (inhibition of growth at 0.125 µM >= 20%) on COc1cc(OC)c2c(=O)c(-c3ccc(OC)c(OCc4ccc(C(F)(F)F)cc4)c3)coc2c1
1

Threshold query (inhibition of growth at 0.125 µM >= 20%) on COc1cc(OC)c2c(=O)c(-c3ccc(OC)c(OCC=C(C)C)c3)coc2c1
-1

Threshold query (inhibition of growth at 0.125 µM >= 20%) on COc1cc(OC)c2c(=O)c(-c3ccc(OCc4ccccc4)c(OCc4ccccc4)c3)coc2c1
1

Threshold query (inhibition of growth at 0.125 µM >= 20%) on COc1cc(OC)c2c(=O)c(-c3ccc(OCC=C(C)C)c(OCC=C(C)C)c3)coc2c1
1

Threshold query (inhibition of growth at 0.125 µM >= 20%) on COc1cc(OC)c2c(=O)c(-c3ccc(OCc4ccc(C(F)(F)F)cc4)c(OC)c3)coc2c1
1

----------
Task for the reader: assign each of the following compounds its reported pIC50.
- TARGET OR SYSTEM: Protein smoothened (Mus musculus)
- Sequence (P56726 whole entry): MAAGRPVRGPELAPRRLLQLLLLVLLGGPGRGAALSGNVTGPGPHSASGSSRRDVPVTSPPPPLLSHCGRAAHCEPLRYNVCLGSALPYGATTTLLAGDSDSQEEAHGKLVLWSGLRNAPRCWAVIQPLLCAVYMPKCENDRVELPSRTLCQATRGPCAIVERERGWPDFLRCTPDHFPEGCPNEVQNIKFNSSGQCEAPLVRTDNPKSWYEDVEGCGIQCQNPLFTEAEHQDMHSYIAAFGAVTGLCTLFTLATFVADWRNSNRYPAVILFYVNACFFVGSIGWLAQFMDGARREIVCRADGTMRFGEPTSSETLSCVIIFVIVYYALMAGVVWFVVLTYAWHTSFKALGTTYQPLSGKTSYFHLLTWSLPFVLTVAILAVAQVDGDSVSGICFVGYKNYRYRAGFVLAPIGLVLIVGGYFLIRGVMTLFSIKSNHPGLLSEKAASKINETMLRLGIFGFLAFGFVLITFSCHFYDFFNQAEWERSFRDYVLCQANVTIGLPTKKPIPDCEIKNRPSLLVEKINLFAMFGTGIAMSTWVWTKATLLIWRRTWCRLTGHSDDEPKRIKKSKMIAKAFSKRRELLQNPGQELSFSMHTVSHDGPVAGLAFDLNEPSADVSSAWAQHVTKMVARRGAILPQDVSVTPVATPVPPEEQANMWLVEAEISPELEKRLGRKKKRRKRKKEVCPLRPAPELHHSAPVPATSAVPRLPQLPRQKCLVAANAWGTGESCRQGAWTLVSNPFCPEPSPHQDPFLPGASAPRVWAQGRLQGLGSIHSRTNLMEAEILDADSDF
- PROTOCOL: Antagonist activity at smo in SAG-treated mouse Light2 cells after 48 hrs by renilla luciferase reporter gene assay
- Type: functional
- STUDY CONDITIONS: read-out: IC50
Entry type: numeric. Quantity: pIC50, the -log10 of concentration in molar units.

# pIC50 lookup, item COc1cc(OC)c2c(=O)c(-c3ccc(OC)c(OCc4ccccc4)c3)coc2c1
5.43

# pIC50 lookup, item COc1cc(OC)c2c(=O)c(-c3ccc(OCc4ccc(C(F)(F)F)cc4)c(OC)c3)coc2c1
5.46

# pIC50 lookup, item COc1cc(OC)c2c(=O)c(-c3ccc(OCc4ccccc4)c(OC)c3)coc2c1
5.16

----------
- TARGET OR SYSTEM: UniProtKB P56726
- PROTOCOL: Antagonist activity at smo in SAG-treated mouse Light2 cells after 48 hrs by renilla luciferase reporter gene assay
- Format: functional
- STUDY CONDITIONS: read-out: IC50
READOUT KIND: IC50 (µM)
Numbers only; they are read as µM.

# IC50 lookup, item COc1cc(OC)c2c(=O)c(-c3ccc(OCc4ccccc4)c(OCc4ccccc4)c3)coc2c1
0.29

# IC50 lookup, item COc1cc(OC)c2c(=O)c(-c3ccc(OCC=C(C)C)c(OC)c3)coc2c1
6.97

# IC50 lookup, item COc1cc(OC)c2c(=O)c(-c3ccc(OC)c(OC/C=C(\C)CCC=C(C)C)c3)coc2c1
3.61

----------
Task for the reader: assign each of the following molecules its reported pIC50.
- TARGET OR SYSTEM: Zinc finger protein GLI1 (Mus musculus)
- Sequence (P47806 whole entry): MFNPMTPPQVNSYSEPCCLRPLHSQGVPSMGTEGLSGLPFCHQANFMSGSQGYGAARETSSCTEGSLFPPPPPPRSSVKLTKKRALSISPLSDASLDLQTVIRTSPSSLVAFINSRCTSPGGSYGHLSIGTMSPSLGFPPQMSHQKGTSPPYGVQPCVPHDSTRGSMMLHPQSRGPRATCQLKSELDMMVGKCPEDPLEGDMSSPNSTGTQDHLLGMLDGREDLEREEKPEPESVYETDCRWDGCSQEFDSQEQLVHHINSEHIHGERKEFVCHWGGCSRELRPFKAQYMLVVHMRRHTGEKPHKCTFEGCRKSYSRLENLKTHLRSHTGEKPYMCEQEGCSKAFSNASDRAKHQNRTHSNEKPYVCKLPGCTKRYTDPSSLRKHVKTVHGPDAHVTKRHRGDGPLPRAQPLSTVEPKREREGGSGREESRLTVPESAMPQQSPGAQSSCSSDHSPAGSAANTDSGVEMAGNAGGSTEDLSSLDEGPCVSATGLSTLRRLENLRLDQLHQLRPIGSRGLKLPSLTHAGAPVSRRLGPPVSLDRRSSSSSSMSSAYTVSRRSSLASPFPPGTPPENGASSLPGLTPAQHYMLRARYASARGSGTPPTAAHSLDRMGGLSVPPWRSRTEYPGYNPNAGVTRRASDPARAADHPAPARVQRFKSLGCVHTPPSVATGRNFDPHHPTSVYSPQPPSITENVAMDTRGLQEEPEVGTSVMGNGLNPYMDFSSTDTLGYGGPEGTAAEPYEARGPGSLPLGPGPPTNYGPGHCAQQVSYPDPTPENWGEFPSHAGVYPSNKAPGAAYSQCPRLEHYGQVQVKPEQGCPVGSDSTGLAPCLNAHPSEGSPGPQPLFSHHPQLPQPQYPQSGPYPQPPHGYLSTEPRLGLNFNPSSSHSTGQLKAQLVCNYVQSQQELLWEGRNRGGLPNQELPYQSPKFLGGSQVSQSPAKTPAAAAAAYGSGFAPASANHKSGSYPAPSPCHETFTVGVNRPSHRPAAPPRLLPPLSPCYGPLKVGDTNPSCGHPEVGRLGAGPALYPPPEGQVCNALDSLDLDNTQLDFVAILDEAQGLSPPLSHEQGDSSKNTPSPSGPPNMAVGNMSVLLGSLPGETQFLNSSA
- PROTOCOL: Inhibition of Gli1 transcriptional activity in mouse embroyonic fibroblasts after 24 hrs by renilla luciferase reporter gene assay
- STUDY CONDITIONS: read-out: IC50
Entry type: numeric. Quantity: pIC50, the -log10 of concentration in molar units.

For Zinc finger protein GLI1 (Mus musculus), provide pIC50 of COc1cc(OC)c2c(=O)c(-c3ccc(OC)c(OCC=C(C)C)c3)coc2c1 please.
5.24

For Zinc finger protein GLI1 (Mus musculus), provide pIC50 of COc1cc(OC)c2c(=O)c(-c3ccc(OC)c(OC/C=C(\C)CCC=C(C)C)c3)coc2c1 please.
4.67

For Zinc finger protein GLI1 (Mus musculus), provide pIC50 of COc1cc(OC)c2c(=O)c(-c3cccc(OCc4ccc(C(F)(F)F)cc4)c3)coc2c1 please.
4.57

For Zinc finger protein GLI1 (Mus musculus), provide pIC50 of COc1cc(OC)c2c(=O)c(-c3ccc(OCc4ccccc4)c(OCc4ccccc4)c3)coc2c1 please.
4.24
